- target.or.test.system: EPHB2 (Homo sapiens, UniProt P29323)
- Sequence (P29323 whole entry): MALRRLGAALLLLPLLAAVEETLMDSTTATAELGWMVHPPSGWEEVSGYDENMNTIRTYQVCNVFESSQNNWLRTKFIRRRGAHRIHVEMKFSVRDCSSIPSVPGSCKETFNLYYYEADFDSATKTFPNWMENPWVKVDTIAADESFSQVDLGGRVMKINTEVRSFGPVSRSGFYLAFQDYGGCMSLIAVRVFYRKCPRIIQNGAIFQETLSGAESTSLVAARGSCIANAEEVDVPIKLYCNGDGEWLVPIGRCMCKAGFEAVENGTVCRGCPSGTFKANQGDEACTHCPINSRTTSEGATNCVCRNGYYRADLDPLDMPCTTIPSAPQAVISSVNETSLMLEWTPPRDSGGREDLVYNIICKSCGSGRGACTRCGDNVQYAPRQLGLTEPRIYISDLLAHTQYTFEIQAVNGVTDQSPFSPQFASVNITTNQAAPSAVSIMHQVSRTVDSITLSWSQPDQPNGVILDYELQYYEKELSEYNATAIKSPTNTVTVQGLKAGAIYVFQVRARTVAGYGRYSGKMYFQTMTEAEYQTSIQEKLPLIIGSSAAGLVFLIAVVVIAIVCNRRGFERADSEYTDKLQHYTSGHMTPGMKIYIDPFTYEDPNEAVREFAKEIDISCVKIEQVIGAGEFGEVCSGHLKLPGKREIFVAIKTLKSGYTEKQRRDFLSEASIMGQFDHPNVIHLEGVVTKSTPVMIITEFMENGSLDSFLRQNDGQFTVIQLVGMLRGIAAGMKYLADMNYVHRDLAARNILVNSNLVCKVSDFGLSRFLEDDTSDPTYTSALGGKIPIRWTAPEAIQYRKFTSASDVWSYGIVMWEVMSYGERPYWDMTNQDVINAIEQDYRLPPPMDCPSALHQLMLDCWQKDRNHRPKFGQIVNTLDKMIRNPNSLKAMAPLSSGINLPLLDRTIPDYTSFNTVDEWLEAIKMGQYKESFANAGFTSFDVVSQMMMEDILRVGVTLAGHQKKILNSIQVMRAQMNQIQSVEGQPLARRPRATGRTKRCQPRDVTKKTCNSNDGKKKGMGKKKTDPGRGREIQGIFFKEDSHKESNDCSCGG
- assay.info: biochemical
- Set-up: species or system HEK293/K-562/placenta mixed human extract; Kinobeads chemoproteomic competition binding, quantified by TMT LC-MS/MS, dose response up to 20 uM
quantity.kind: IC50

Ask: Need IC50, item COc1ccccc1-c1n[nH]c2nc(N[C@H]3CC[C@H](NS(=O)(=O)CCC(F)(F)F)CC3)nc(OC)c12
Result: ≥ 20 µM

====

- target.or.test.system: MAPK9 (Homo sapiens, UniProt P45984)
- Sequence (P45984 whole entry): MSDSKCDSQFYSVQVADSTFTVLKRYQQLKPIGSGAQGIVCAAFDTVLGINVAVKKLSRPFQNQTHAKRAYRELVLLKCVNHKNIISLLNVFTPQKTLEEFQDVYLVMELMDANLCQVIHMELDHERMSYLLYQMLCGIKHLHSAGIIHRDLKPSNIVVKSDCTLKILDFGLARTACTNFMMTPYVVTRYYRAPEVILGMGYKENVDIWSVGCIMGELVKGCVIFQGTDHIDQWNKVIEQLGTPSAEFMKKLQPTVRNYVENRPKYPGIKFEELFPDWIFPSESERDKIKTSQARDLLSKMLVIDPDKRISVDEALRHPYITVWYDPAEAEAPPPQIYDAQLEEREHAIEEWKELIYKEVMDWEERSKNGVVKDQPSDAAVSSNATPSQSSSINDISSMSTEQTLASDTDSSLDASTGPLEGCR
- assay.info: biochemical
- Set-up: species or system HEK293/K-562/placenta mixed human extract; Kinobeads chemoproteomic competition binding, quantified by TMT LC-MS/MS, dose response up to 20 uM
quantity.kind: IC50

Ask: May I ask what IC50 has been recorded for COc1nc(N[C@H]2CC[C@H](NS(=O)(=O)CC(C)C)CC2)nc2[nH]nc(N3CCOC[C@H]3C)c12 ?
Result: ≥ 20 µM

====

- target.or.test.system: MAP3K9 (Homo sapiens)
quantity.kind: IC50

Ask: State the recorded IC50 for this entry: COc1nc(N[C@H]2CC[C@H](NS(=O)(=O)CC(C)C)CC2)nc2[nH]nc(N3CCOC[C@H]3C)c12
Result: ≥ 20 µM

====

- target.or.test.system: CSNK1E (Homo sapiens, UniProt P49674)
- assay.info: biochemical
- Set-up: species or system HEK293/K-562/placenta mixed human extract; Kinobeads chemoproteomic competition binding, quantified by TMT LC-MS/MS, dose response up to 20 uM
pIC50: −log10 of the molar value.
quantity.kind: pIC50

Ask: I'd like to know its pIC50. The compound in question is COc1nc(N[C@H]2CC[C@H](NS(=O)(=O)CC(C)C)CC2)nc2[nH]nc(N3CCOC[C@H]3C)c12 [compound 39]
Result: ≤ 4.70

====

- target.or.test.system: EPHB4 (Homo sapiens, UniProt P54760)
- assay.info: biochemical
- Parameters: species or system HEK293/K-562/placenta mixed human extract; Kinobeads chemoproteomic competition binding, quantified by TMT LC-MS/MS, dose response up to 20 uM
pIC50: −log10 of the molar value.
quantity.kind: pIC50

Ask: Look up pIC50: COc1nc(N[C@H]2CC[C@H](NS(=O)(=O)CC(C)C)CC2)nc2[nH]nc(N3CCOC[C@H]3C)c12
Result: ≤ 4.70

====

- target.or.test.system: TYRO3 (Homo sapiens, UniProt Q06418)
- assay.info: biochemical
- Design: species or system HEK293/K-562/placenta mixed human extract; Kinobeads chemoproteomic competition binding, quantified by TMT LC-MS/MS, dose response up to 20 uM
quantity.kind: IC50

Ask: So what's the measured IC50 for this one? COc1ccccc1-c1n[nH]c2nc(N[C@H]3CC[C@H](NS(=O)(=O)CCC(F)(F)F)CC3)nc(OC)c12
Result: ≥ 20 µM

====

- target.or.test.system: DDR1 (Homo sapiens, UniProt Q08345)
- assay.info: biochemical
- Parameters: species or system HEK293/K-562/placenta mixed human extract; Kinobeads chemoproteomic competition binding, quantified by TMT LC-MS/MS, dose response up to 20 uM
pIC50: −log10 of the molar value.
quantity.kind: pIC50

Ask: Notebook entry, DDR1 (Homo sapiens, UniProt Q08345) assay: pIC50 of COc1nc(N[C@H]2CC[C@H](NS(=O)(=O)CC(C)C)CC2)nc2[nH]nc(N3CCOC[C@H]3C)c12 [compound 39] = ?
Result: ≤ 4.70

====

- target.or.test.system: ERN1 (Homo sapiens, UniProt O75460)
- assay.info: biochemical
- Design: species or system HEK293/K-562/placenta mixed human extract; Kinobeads chemoproteomic competition binding, quantified by TMT LC-MS/MS, dose response up to 20 uM
pIC50: −log10 of the molar value.
quantity.kind: pIC50

Ask: # pIC50 lookup, item COc1ccccc1-c1n[nH]c2nc(N[C@H]3CC[C@H](NS(=O)(=O)CCC(F)(F)F)CC3)nc(OC)c12
Result: ≤ 4.70

====

- target.or.test.system: TYRO3 (Homo sapiens)
- assay.info: biochemical
- Set-up: species or system HEK293/K-562/placenta mixed human extract; Kinobeads chemoproteomic competition binding, quantified by TMT LC-MS/MS, dose response up to 20 uM
quantity.kind: IC50

Ask: What value of measured IC50 is listed for COc1nc(N[C@H]2CC[C@H](NS(=O)(=O)CC(C)C)CC2)nc2[nH]nc(N3CCOC[C@H]3C)c12 [compound 39] ?
Result: ≥ 20 µM

====

- target.or.test.system: FGFR1 (Homo sapiens, UniProt P11362)
- Sequence (P11362 whole entry): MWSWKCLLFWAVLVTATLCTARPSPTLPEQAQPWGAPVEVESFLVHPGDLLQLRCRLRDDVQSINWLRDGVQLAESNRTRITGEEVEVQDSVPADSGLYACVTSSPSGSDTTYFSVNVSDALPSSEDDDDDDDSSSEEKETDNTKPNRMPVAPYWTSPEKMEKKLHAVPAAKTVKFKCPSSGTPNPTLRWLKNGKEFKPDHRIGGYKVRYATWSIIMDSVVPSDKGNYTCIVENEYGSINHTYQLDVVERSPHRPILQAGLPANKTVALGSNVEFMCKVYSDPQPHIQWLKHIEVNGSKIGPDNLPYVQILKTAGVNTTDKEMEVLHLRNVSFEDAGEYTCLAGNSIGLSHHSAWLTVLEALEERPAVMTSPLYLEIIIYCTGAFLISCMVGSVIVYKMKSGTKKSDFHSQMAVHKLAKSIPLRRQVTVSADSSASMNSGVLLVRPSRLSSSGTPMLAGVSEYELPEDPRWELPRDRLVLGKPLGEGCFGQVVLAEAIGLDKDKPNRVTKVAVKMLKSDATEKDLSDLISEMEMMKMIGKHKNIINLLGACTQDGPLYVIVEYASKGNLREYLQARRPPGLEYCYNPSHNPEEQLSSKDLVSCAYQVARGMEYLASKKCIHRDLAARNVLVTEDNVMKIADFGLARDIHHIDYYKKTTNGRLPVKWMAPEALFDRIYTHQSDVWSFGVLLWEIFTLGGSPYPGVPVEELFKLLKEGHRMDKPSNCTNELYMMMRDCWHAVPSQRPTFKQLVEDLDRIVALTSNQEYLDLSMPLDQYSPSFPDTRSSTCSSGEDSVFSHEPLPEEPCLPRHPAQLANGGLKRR
- assay.info: biochemical
- Set-up: species or system HEK293/K-562/placenta mixed human extract; Kinobeads chemoproteomic competition binding, quantified by TMT LC-MS/MS, dose response up to 20 uM
pIC50: −log10 of the molar value.
quantity.kind: pIC50

Ask: Dear colleague, I am looking for the recorded pIC50 of the following molecule: COc1ccccc1-c1n[nH]c2nc(N[C@H]3CC[C@H](NS(=O)(=O)CCC(F)(F)F)CC3)nc(OC)c12
Result: ≤ 4.70

====

- target.or.test.system: SGK3 (Homo sapiens, UniProt Q96BR1)
- Sequence (Q96BR1 whole entry): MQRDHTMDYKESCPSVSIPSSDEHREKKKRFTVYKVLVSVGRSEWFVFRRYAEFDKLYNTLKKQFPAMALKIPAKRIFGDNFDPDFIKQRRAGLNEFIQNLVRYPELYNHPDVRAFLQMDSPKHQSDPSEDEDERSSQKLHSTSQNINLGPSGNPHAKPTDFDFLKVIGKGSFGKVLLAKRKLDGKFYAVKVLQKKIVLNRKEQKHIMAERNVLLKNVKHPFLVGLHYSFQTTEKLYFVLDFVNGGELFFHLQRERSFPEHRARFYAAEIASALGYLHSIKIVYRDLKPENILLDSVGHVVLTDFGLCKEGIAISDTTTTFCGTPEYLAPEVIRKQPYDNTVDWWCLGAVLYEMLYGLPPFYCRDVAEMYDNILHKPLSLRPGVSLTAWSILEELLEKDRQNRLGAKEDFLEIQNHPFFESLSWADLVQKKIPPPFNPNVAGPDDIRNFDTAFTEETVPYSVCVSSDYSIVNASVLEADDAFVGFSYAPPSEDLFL
- assay.info: biochemical
- Design: species or system HEK293/K-562/placenta mixed human extract; Kinobeads chemoproteomic competition binding, quantified by TMT LC-MS/MS, dose response up to 20 uM
quantity.kind: IC50

Ask: // IC50 lookup, key: COc1nc(N[C@H]2CC[C@H](NS(=O)(=O)CC(C)C)CC2)nc2[nH]nc(N3CCOC[C@H]3C)c12 [compound 39]
Result: ≥ 20 µM

====

- target.or.test.system: CDK9 (Homo sapiens, UniProt P50750)
- Sequence (P50750 whole entry): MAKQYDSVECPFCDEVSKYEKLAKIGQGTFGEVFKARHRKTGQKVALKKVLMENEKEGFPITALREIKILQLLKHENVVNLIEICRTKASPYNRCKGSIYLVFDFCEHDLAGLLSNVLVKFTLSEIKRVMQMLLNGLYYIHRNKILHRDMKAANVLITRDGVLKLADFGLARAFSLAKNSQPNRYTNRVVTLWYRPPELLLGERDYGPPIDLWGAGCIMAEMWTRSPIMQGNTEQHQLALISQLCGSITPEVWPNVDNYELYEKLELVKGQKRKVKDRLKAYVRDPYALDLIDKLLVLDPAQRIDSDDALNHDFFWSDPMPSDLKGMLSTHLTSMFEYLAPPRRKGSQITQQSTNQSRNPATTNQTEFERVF
- assay.info: biochemical
- Design: species or system HEK293/K-562/placenta mixed human extract; Kinobeads chemoproteomic competition binding, quantified by TMT LC-MS/MS, dose response up to 20 uM
quantity.kind: IC50 (µM)
All answers are understood in µM, so give the number only.

Ask: Given the compound COc1ccccc1-c1n[nH]c2nc(N[C@H]3CC[C@H](NS(=O)(=O)CCC(F)(F)F)CC3)nc(OC)c12 , what is its reported IC50?
Result: 3.6

====

- target.or.test.system: TTK (Homo sapiens)
- assay.info: biochemical
- Parameters: species or system HEK293/K-562/placenta mixed human extract; Kinobeads chemoproteomic competition binding, quantified by TMT LC-MS/MS, dose response up to 20 uM
pIC50: −log10 of the molar value.
quantity.kind: pIC50

Ask: I would be grateful if you could share the reported pIC50 for COc1nc(N[C@H]2CC[C@H](NS(=O)(=O)CC(C)C)CC2)nc2[nH]nc(N3CCOC[C@H]3C)c12 [compound 39] .
Result: ≤ 4.70

====

- target.or.test.system: CAMK2D (Homo sapiens)
- Sequence (Q13557 whole entry): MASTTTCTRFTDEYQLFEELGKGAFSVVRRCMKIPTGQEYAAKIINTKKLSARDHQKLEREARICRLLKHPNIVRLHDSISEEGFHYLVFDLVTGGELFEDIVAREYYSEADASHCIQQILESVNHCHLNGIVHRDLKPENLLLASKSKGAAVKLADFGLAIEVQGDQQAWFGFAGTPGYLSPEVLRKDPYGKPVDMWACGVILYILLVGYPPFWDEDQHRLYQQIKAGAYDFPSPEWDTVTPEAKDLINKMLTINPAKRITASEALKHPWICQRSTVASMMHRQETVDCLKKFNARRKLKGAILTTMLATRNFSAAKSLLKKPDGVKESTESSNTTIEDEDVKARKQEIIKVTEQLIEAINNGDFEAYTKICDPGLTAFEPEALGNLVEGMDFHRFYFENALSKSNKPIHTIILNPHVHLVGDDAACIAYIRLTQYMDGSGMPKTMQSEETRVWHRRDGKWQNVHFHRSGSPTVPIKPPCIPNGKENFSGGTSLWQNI
- assay.info: biochemical
- Design: species or system HEK293/K-562/placenta mixed human extract; Kinobeads chemoproteomic competition binding, quantified by TMT LC-MS/MS, dose response up to 20 uM
pIC50: −log10 of the molar value.
quantity.kind: pIC50

Ask: For the molecule shown here, COc1ccccc1-c1n[nH]c2nc(N[C@H]3CC[C@H](NS(=O)(=O)CCC(F)(F)F)CC3)nc(OC)c12 , give the reported pIC50.
Result: ≤ 4.70

====

- target.or.test.system: TYK2 (Homo sapiens)
- assay.info: biochemical
- Parameters: species or system HEK293/K-562/placenta mixed human extract; Kinobeads chemoproteomic competition binding, quantified by TMT LC-MS/MS, dose response up to 20 uM
pIC50: −log10 of the molar value.
quantity.kind: pIC50

Ask: Any idea what pIC50 was measured for COc1ccccc1-c1n[nH]c2nc(N[C@H]3CC[C@H](NS(=O)(=O)CCC(F)(F)F)CC3)nc(OC)c12 ?
Result: ≤ 4.70

====

- target.or.test.system: MINK1 (Homo sapiens)
- Sequence (Q8N4C8 whole entry): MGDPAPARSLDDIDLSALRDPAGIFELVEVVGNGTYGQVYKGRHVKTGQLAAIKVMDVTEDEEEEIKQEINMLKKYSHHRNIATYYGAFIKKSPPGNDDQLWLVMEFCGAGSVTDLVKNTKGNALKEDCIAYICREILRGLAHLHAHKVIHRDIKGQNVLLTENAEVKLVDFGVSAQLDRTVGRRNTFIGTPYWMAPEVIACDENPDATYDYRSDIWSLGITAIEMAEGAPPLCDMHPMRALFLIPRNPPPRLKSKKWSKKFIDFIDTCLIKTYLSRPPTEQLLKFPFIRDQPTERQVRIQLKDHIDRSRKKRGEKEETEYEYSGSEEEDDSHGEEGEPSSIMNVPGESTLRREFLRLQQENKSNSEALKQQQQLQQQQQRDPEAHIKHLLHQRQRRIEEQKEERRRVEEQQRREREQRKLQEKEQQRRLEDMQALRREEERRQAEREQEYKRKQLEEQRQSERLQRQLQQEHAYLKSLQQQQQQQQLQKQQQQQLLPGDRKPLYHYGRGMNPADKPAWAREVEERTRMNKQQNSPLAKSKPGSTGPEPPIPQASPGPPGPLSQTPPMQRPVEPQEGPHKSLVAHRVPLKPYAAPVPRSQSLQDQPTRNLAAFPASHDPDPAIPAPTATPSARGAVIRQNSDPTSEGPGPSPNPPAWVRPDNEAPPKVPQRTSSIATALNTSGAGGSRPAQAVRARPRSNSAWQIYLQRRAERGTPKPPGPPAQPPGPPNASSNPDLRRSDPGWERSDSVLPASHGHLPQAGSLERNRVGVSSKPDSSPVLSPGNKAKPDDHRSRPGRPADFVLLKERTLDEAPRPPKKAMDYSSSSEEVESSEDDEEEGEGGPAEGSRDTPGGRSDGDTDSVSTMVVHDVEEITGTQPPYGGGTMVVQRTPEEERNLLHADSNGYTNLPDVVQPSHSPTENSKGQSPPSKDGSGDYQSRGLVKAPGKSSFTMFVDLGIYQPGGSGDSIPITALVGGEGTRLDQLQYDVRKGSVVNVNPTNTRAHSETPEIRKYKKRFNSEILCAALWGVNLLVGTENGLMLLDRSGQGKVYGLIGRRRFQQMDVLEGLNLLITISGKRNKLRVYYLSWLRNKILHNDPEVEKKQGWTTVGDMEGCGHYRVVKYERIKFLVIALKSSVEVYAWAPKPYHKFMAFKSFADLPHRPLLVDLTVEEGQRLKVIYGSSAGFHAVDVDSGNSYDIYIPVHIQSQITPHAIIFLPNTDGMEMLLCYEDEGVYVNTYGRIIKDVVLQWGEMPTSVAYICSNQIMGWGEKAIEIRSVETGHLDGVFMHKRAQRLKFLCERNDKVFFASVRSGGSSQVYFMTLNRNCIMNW
- assay.info: biochemical
- Set-up: species or system HEK293/K-562/placenta mixed human extract; Kinobeads chemoproteomic competition binding, quantified by TMT LC-MS/MS, dose response up to 20 uM
quantity.kind: IC50

Ask: Form field: reported IC50 of COc1nc(N[C@H]2CC[C@H](NS(=O)(=O)CC(C)C)CC2)nc2[nH]nc(N3CCOC[C@H]3C)c12
Result: ≥ 20 µM

====

- target.or.test.system: EPHA5 (Homo sapiens, UniProt P54756)
- assay.info: biochemical
- Set-up: species or system HEK293/K-562/placenta mixed human extract; Kinobeads chemoproteomic competition binding, quantified by TMT LC-MS/MS, dose response up to 20 uM
quantity.kind: IC50

Ask: Requested read-out: IC50. Entry: COc1nc(N[C@H]2CC[C@H](NS(=O)(=O)CC(C)C)CC2)nc2[nH]nc(N3CCOC[C@H]3C)c12 [compound 39]
Result: ≥ 20 µM
